subject of test: KCNQ 2/3 channels (HEK293 cells stably expressing human KCNQ2 and KCNQ3 subunits) (Homo sapiens, UniProt O43525+O43526)
Construct: expressed in transfected cells; host or cells: HEK293
method description: KCNQ2/3 channel activation, thallium flux FLIPR assay with BTC-AM dye
Type: cell-based
condition: HEK293; maximum response relative to the response produced by 10 μM retigabine (set at 100%); read-out: Max. %
# Emax annotations
Number in %, nothing else.

>  <molecule>
O=C(CC1CC2CCC1C2)Nn1nc(-c2ccc(C(=O)O)cc2)c2ccccc2c1=O (racemic)

>  <Emax / %>
140

$$$$
>  <molecule>
O=C(Cc1ccccc1)Nn1nc(-c2ccc(Cl)cc2)c2ccccc2c1=O

>  <Emax / %>
101

$$$$
>  <molecule>
O=C(CC12CC3CC(CC(F)(C3)C1)C2)Nn1nc(-c2ccccc2)c2ccsc2c1=O

>  <Emax / %>
169

$$$$

Let us examine a further case.
## Input Look up and state reported Emax for CS(=O)(=O)c1ccc(CC(=O)Nn2nc(-c3ccc(Cl)cc3)c3ccccc3c2=O)cc1
## Output 25
